The origin of these recorded values is the supplement of paper PMC11780869.

system: Bacillus subtilis; assay: cleaved RNA product abundance (RNA/gDNA barcode ratio) relative to median wild-type variant (ratio to wild type); higher = more accumulation of the downstream cleavage product; conditions: experiment (reporter, strain, medium): exp 8a: truncated aprE reporter, strain BJT201 with 2% xylose (RNase J1 expressed); cleavage site: glnRA (positions -5 to +31 mutated)
measuredEndpoint: cleaved RNA product abundance

| inputSequence | experimentalSystem | quantitativeReadout |
| --- | --- | --- |
| CGACATGTCCCGCTTCTTTCATTATTCTGTTAGCAACTGTTTTGCTATAAACATTTACCTTTTAAGAGGAGGAAT | Bacillus subtilis | 0.834 |
| CGACATGTCCCGCTTCTTTCATTATTCCGTTAGCAATTGTTTTGCTATATACATTTACCTTTTAAGAGGAGGAAT | Bacillus subtilis | 1.83 |
| CGACATGTCCCGCTTCTTTCATTAATCCGTTAGCAATTGTGTTGCTATATACATTTACCTTTTAAGAGGAGGAAT | Bacillus subtilis | 0.947 |
| CGACATGTCCCGCTTCTTTCATTAATCCGTTAGCAACTGTTTTGCTAGATACATTTACATTTTAAGAGGAGGAAT | Bacillus subtilis | 0.424 |

----------
system: Bacillus subtilis; assay: cleaved RNA product abundance (RNA/gDNA barcode ratio) relative to median wild-type variant (ratio to wild type); higher = more accumulation of the downstream cleavage product; details: experiment (reporter, strain, medium): exp 4a: truncated aprE reporter, strain BJT201 with 2% xylose (RNase J1 expressed); cleavage site: cggR-gapA (positions -7 to +36 mutated)

| inputSequence | cleaved RNA product abundance |
| --- | --- |
| ACAGACGAAGGAGCCGCAAAGAAGTTATTAAGGGATGATTAATCCCTTAATATAAATATCTCTCACTTATTTAAA | 0.554 |
| ACAGACGAAGGAGCCGCAAAGAAGTTATTAAGTCATGAATAATCCCTCAATATAAATATCTCTCACTTATTTAAA | 0.106 |
| ACAGACGAAGGAGCCGCAAAGAAGTTCTTAAGGGAAGAATAATCCCTCAATATAAATATCTCTCACTTATTTAAA | 0.113 |
| ACAGACGAAGGAGCCGCAAAGAAGTTATTAAGGGATAAATAATCCCTCGATATAAATATCTCTCACTTATTTAAA | 0.433 |

----------
tested on: Bacillus subtilis; assay: cleaved RNA product abundance (RNA/gDNA barcode ratio) relative to median wild-type variant (ratio to wild type); higher = more accumulation of the downstream cleavage product; conditions: experiment (reporter, strain, medium): exp 2b: truncated aprE reporter, strain BJT200; cleavage site: cggR-gapA (positions -7 to +36 mutated)
cleaved RNA product abundance reference
measuredEndpoint: cleaved RNA product abundance

| inputSequence | measuredEndpoint | quantitativeReadout |
| --- | --- | --- |
| ACAGACGAAGGAGCCGCAAAGAAGTTATTAAGGGATAAATAATCCCTCTATATAAATATCTCTCACTTATTTAAA | cleaved RNA product abundance | 0.396 |
| ACAGACGAAGGAGCCGCAAAGAACTTATTAAGGGTTGAATAATCCCTCAATATAAATATCTCTCACTTATTTAAA | cleaved RNA product abundance | 0.218 |
| ACAGACGAAGGAGCCGCAAAGAAGTTATTAAGGGACGAATAATCCCACAATATAAATATCTCTCACTTATTTAAA | cleaved RNA product abundance | 0.13 |
| ACAGACGAAGGAGCCGCAAAGAACTTATAAAGGGATGAATAATCCCTCAATATAAATATCTCTCACTTATTTAAA | cleaved RNA product abundance | 0.24 |
| ACAGACGAAGGAGCCGCAAAGAAGTTATTAACGGATGAATAATCACTCAATATAAATATCTCTCACTTATTTAAA | cleaved RNA product abundance | 0.0895 |
| ACAGACGAAGGAGCCGCAAAGAAGTTATTAAGGGATGAATAATCCCTCAATATAAAATATCTCTCACTTATTTAA | cleaved RNA product abundance | 0.806 |
| ACAGACGAAGGAGCCGCAAATAAGTTATTAAGGGTTGAATAATCCCTCAATATAAATATCTCTCACTTATTTAAA | cleaved RNA product abundance | 0.425 |
| ACAGACGAAGGAGCCGCAAAGAAGTTATTAAAGGATGAATAATCCCTCTATATAAATATCTCTCACTTATTTAAA | cleaved RNA product abundance | 0.132 |
| ACAGACGAAGGAGCCGCAAAGAAGTAATTAAGGGATGAATAATCTCTCAATATAAATATCTCTCACTTATTTAAA | cleaved RNA product abundance | 0.213 |
| ACAGACGAAGGAGCCGCAAAGAAGTTATTACGGGATGAATAAGCCCTCAATATAAATATCTCTCACTTATTTAAA | cleaved RNA product abundance | 0.189 |
| ACAGACGAAGGAGCCGCAAACAAGTTTTTAAGGGATGAATAATCCCTCAATATAAATATCTCTCACTTATTTAAA | cleaved RNA product abundance | 0.289 |
| ACAGACGAAGGAGCCGCAAAGAAGTTATTAAGGGATGAAAAATCCTTCAATATAAATATCTCTCACTTATTTAAA | cleaved RNA product abundance | 0.355 |
| ACAGACGAAGGAGCCGCAAAGAAATTATTAAGGGATGAATAATCCCTGAATATAAATATCTCTCACTTATTTAAA | cleaved RNA product abundance | 0.49 |
| ACAGACGAAGGAGCCGCAAAGAATTTATTAAGGGATGAATAATCACTCAATATAAATATCTCTCACTTATTTAAA | cleaved RNA product abundance | 0.134 |
| ACAGACGAAGGAGCCGCAAAGAAGTTATTAAGGGATGAATAATCCCTCAATATAAATAACTCTCACTTATTTAAA | cleaved RNA product abundance | 0.903 |
| ACAGACGAAGGAGCCGCAAAGAAGTTATTAAGGGATGAATACTCCATCAATATAAATATCTCTCACTTATTTAAA | cleaved RNA product abundance | 0.102 |
| ACAGACGAAGGAGCCGCAAAGAACTTATTAAGGGATGAATAATCCCTCAGTATAAATATCTCTCACTTATTTAAA | cleaved RNA product abundance | 0.128 |
| ACAGACGAAGGAGCCGCAATGAAGTTATTAAGTGATGAATAATCCCTCAATATAAATATCTCTCACTTATTTAAA | cleaved RNA product abundance | 0.0987 |
| ACAGACGAAGGAGCCGCAAAGAAGATATTAAGTGATGAATAATCCCTCAATATAAATATCTCTCACTTATTTAAA | cleaved RNA product abundance | 0.103 |
| ACAGACGAAGGAGCCGCAAAGAAGTTATTAAGGGATCAATAATCCCTTAATATAAATATCTCTCACTTATTTAAA | cleaved RNA product abundance | 1.02 |
| ACAGACGAAGGAGCCGCAAAGAAGTTATTAAGGGTTGAATAATCCCTCTATATAAATATCTCTCACTTATTTAAA | cleaved RNA product abundance | 0.157 |
| ACAGACGAAGGAGCCGCAAAGAAGTTATTAAGGGATGAGTAATCCCTCAATATAAATATCTCTCACTTATTTAAA | cleaved RNA product abundance | 0.484 |
| ACAGACGAAGGAGCCGCAAAGAAGTAATTAAGGGATGAACAATCCCTCAATATAAATATCTCTCACTTATTTAAA | cleaved RNA product abundance | 0.181 |
| ACAGACGAAGGAGCCGCAAAGCAGTTATTAAGGGATGAATAATCCCTCAATATAAATATCTCTCACTTATTTAAA | cleaved RNA product abundance | 0.905 |
| ACAGACGAAGGAGCCGCAAAGAAGTTATTAAGGGATGAATAATCCCTGAATATATATATCTCTCACTTATTTAAA | cleaved RNA product abundance | 0.477 |
| ACAGACGAAGGAGCCGCAAAGAAGTTATTAAGGGATGATTAATCCATCAATATAAATATCTCTCACTTATTTAAA | cleaved RNA product abundance | 0.124 |
| ACAGACGAAGGAGCCGCAAAGAAGTTATTAAAGGATGAATAATCCCTCAATAGAAATATCTCTCACTTATTTAAA | cleaved RNA product abundance | 0.111 |
| ACAGACGAAGGAGCCGCACAGAATTTATTAAGGGATGAATAATCCCTCAATATAAATATCTCTCACTTATTTAAA | cleaved RNA product abundance | 0.544 |
| ACAGACGAAGGAGCCGCAAAGAAGTTATTAAGGGATGAATATTCCCTCAAAATAAATATCTCTCACTTATTTAAA | cleaved RNA product abundance | 0.231 |
| ACAGACGAAGGAGCCGCAAAGAAGTTATAAAGTGATGAATAATCCCTCAATATAAATATCTCTCACTTATTTAAA | cleaved RNA product abundance | 0.0907 |
